Items are presented alongside their recorded pIC50.
# Target Desc: human 20S proteasome, caspase-like (C-L) activity (Homo sapiens, UniProt P28072)
# Test Description: C-L activity of SDS-activated human 20S proteasome (Z-LLE-AMC)
# Assay Context: C-like Human 20S IC50, SDS-activated human 20S, pH 8.1, 37°C, Z-LLE-AMC 79 µM
Peptide text beside a SMILES is read from it. * marks the point of attachment. Cbz = O=C(OCc1ccccc1)*
Remember the convention: pIC50 equals -log10 of concentration in molar.

Lab book: pIC50 of CC(C)C[C@@H](C=O)NC(=O)[C@H](CC(C)C)NC(=O)[C@H](CC(C)C)NC(=O)OCc1ccccc1 [Z-LLL-CHO, reference compound] (Cbz-Leu-Leu-Leu-aldehyde) noted as 5.25

Lab book: pIC50 of CC[C@H](C)[C@@H]1NC(=O)[C@@H]2CCCN2C(=O)[C@H]([C@@H](C)CC)NC(=O)[C@H](CCCNC(=N)N)NC(=O)[C@H](CO)NC(=O)[C@H](CCCCN)NC(=O)[C@H]([C@@H](C)O)NC(=O)[C@@H](NC(=O)[C@H](CCCNC(=N)N)NC(=O)CN)CSSC[C@@H](C(=O)N[C@@H](Cc2ccccc2)C(=O)N2CCC[C@H]2C(=O)N[C@@H](CC(=O)O)C(=O)O)NC1=O [Analogue IV] (HELM PEPTIDE1{G.R.C.T.K.S.R.I.P.I.C.F.P.D}$PEPTIDE1,PEPTIDE1,3:R3-11:R3$$$V2.0) noted as 5.61

Lab book: pIC50 of CC[C@H](C)[C@@H]1NC(=O)[C@@H]2CCCN2C(=O)[C@H](CCCCN)NC(=O)[C@H](CCCCN)NC(=O)[C@H](CO)NC(=O)[C@H](Cc2ccccc2)NC(=O)[C@H]([C@@H](C)O)NC(=O)[C@@H](NC(=O)[C@H](CCCNC(=N)N)NC(=O)CN)CSSC[C@@H](C(=O)N[C@@H](Cc2ccccc2)C(=O)N2CCC[C@H]2C(=O)N[C@@H](CC(=O)O)C(=O)O)NC1=O [Analogue VII] (HELM PEPTIDE1{G.R.C.T.F.S.K.K.P.I.C.F.P.D}$PEPTIDE1,PEPTIDE1,3:R3-11:R3$$$V2.0) noted as 5.55
